Just for reference, paper PMC4999056 is where these values come from.

Here the recorded Dengue SI is given for each entry.
Tested on: DENV (serotype 2)
Experiment: microbe, parasite or virus in culture
Format: cell-based, Dengue virus serotype 2

Reference set (3 entries):
>  <compound>
Cc1ccc(NC(=O)c2nccnc2C(=O)Nc2ccc(C)cc2-c2ccsc2)cc1

>  <Dengue SI>
>29

$$$$
>  <compound>
Cc1ccc(NC(=O)c2ccccc2C(=O)Nc2ccc(F)cc2)c(-c2ccsc2)c1

>  <Dengue SI>
16

$$$$
>  <compound>
Cc1ccc(NC(=O)c2nccnc2C(=O)Nc2ccc(F)cc2)c(-c2ccsc2)c1

>  <Dengue SI>
>55

$$$$

[ask] Supply Dengue SI measured with DENV (serotype 2) for Cc1ccc(NC(=O)c2ccccc2C(=O)Nc2ccc(C)cc2-c2ccc(C)s2)cc1 .
[reply] >57

[ask] Supply Dengue SI measured with DENV (serotype 2) for Cc1ccc(NC(=O)c2ccccc2NC(=O)c2ccc(F)cc2)c(-c2ccncc2)c1 [13c] .
[reply] >7

[ask] Supply Dengue SI measured with DENV (serotype 2) for Cc1ccc(NC(=O)c2ccccc2NC(=O)c2ccc(F)cc2)c(-c2ccc(C)s2)c1 [13b] .
[reply] >35

[ask] Supply Dengue SI measured with DENV (serotype 2) for Cc1ccc(NC(=O)c2nccnc2C(=O)Nc2ccc(F)cc2)c(-c2cccs2)c1 .
[reply] >25

[ask] Supply Dengue SI measured with DENV (serotype 2) for Cc1ccc(NC(=O)c2ccccc2NC(=O)c2ccc(F)cc2)c(-c2cccnc2)c1 [13d] .
[reply] >5

[ask] Supply Dengue SI measured with DENV (serotype 2) for Cc1ccc(NC(=O)c2ccccc2C(=O)Nc2ccc(F)cc2)c(-c2cc(C)n[nH]2)c1 .
[reply] >235
